Where these numbers come from: PubChem BioAssay (NCI)

assay: NCI Yeast Anticancer Drug Screen. Data for the mec2-1 strain (AID 157)
runParameters: S. cerevisiae mec2-1 strain, at 100.0 µM
The panel holds about 79,000 compounds, 15% with a hit somewhere; the sample as a whole holds those more often. Calls of active or inactive are those of the source. Rule as the data show it: active = growth inhibition above about 70%; inactive = the rest.
Outcomes: true = active, false = inactive

In [3]: df
Out[3]:
                                    compound    cat
 0  S=C1C(=Nc2ccccc2)N(c2ccccc2)/C(=N\c2ccccn2)N1c1ccccc1   true
 1  C[N+](C)([O-])CCCNc1c2ccccc2nc2cccc([N+](=O)[O-])c12   true
 2  NC(N)=NS(=O)(=O)c1ccc(Nc2c3ccccc3nc3c(C(=O)NC(CO)(CO)CO)cccc23)cc1  false
 3  NCCOc1ccc(/C(=C(/Cl)c2ccccc2)c2ccccc2)cc1   true
 4  CC(=O)Oc1ccc2c(c1)Cc1cc(N3C(=O)C=CC3=O)ccc1-2   true
 5                    Nc1cc(Cl)ccc1Nc1ccccc1   true
 6  Cn1c(-c2ccc(/C=N\N3CCN(/N=C/c4ccc(-c5c[n+]6ccsc6n5C)cc4)CC3)cc2)c[n+]2ccsc12   true
 7  CCCCCCCN(CCCCCCC)CC(=O)c1ccc2cc(Cl)c3ccccc3c2c1   true
 8  CO[C@@]1([C@@H](Cl)c2ccccc2)C(=O)N(C)/C(=C\c2ccccc2)C(=O)N1C  false
 9  COC(=O)C(=O)c1c(-c2ccc(Cl)c(Cl)c2)[nH]c2[nH]n(-c3ccccc3)c(=O)c2c1=O  false
10  C[n+]1c(/C=C/c2ccc(/C=N/NC(=O)c3ccc(C(=O)N/N=C/c4ccc(/C=C/c5cn6ccccc6[n+]5C)cc4)cc3)cc2)cn2ccccc21   true
11  O=[N+]([O-])[O][Sn]([O][Sn]([O][N+](=O)[O-])([c]1ccccc1)[c]1ccccc1)([c]1ccccc1)[c]1ccccc1   true
12          COc1cc([N+](=O)[O-])c2ncccc2c1Br  false
13           CC(C)OC(=O)NNc1c(Cl)cc(Cl)cc1Cl  false
14     CCOP(=O)(OCC)/C(C#N)=C\c1cccc2ccccc12   true
15  N#CCCC1C(C#N)C2(Cl)CC1(Cl)C(Cl)=C2Cl (configuration not stated)   true
16                Oc1ccc(N=Nc2ccc(Cl)cc2)cc1   true
17  CCCCCCCCN1COCC(COc2ccccc2C)OC1 (configuration not stated)   true
18                Cc1nc2sc3c(c2c(=O)o1)CCCC3  false
19  O=C(NCCCCN1CC2CCCC2C1)C(C1CCCCC1)C1CCCCC1 (configuration not stated)   true
20  O=C1SS(=O)c2ccccc21 (configuration not stated)   true
21         CC(=O)CCC1=C(C)C(=O)C(=O)C(C)=C1O   true

---

Collected growth inhibition values appear next to each entry.
assay: NCI Yeast Anticancer Drug Screen. Data for the bub3 strain (AID 167)
runParameters: S. cerevisiae bub3 mutant strain, at 100.0 µM, hits give high values
Compounds without any hit were thinned out: in the full panel of roughly 79,000, 15% have a hit. The source made the active and inactive calls. Cut-off read from the data, not from the text of the source: active = growth inhibition above about 70%; inactive = the rest.
readoutLabel: growth inhibition

>>> print(df.to_string())
                                    molecule   measuredvalue
 0  COc1ccc(C(C)c2cc3c(cc2OC(C)O)OCO3)cc1 (stereo not drawn)  64% (inactive)
 1         Cc1oc2ccccc2c(=O)c1Cn1nnc2ccccc21  67% (inactive)
 2  NC(N)=NC(N)=Nc1ccccc1 (tested in a mixture with another compound)  29% (inactive)
 3                  O=C(/C=C/c1ccsc1)c1cccs1    97% (active)
 4  CCCCN(CCC#N)c1ccc(/C=C/c2ccnc3ccccc23)cc1  53% (inactive)
 5  O=C1CC(C(O)(C(F)(F)F)C(F)(F)Cl)CCC1C(O)(C(F)(F)F)C(F)(F)Cl (stereo not drawn)    97% (active)
 6             COC(=O)/C(C#N)=C\NC(=S)C(N)=S    98% (active)
 7  CC(CC/C(=N/O)c1ccccc1)(CC/C(=N\O)c1ccccc1)[N+](=O)[O-] (stereo not drawn)  52% (inactive)
 8  COC(=O)C(Cc1c[nH]c2ccccc12)N1CN(C)c2ccccc2C1=O (stereo not drawn)    99% (active)
 9   COc1ccc(N=c2cc(-c3ccccc3)oc3ccccc23)cc1  -1% (inactive)
10  COc1ccc2nc3cccc([N+](=O)[O-])c3c(NCCCCCC(=O)O)c2c1    99% (active)
11  NCCOc1ccc(/C(=C(/Cl)c2ccccc2)c2ccccc2)cc1    96% (active)
12                  OB(O)c1ccccc1C#Cc1ccccc1  46% (inactive)
13   CN(C)CCNc1ccc2ncn3c4ccc(O)cc4c(=O)c1c23   7% (inactive)
14  N#C/C(=C\NC(=S)Nc1ccc(S(N)(=O)=O)cc1)C(=O)c1ccc2ccccc2c1  -3% (inactive)
15  O=C1c2ccccc2C(=O)c2c(O)c(NCCNCCO)cc(O)c21    91% (active)
16  Cc1ccc(NC(Nc2ccc(C)cc2C)=C(C(Cl)=C(Cl)Cl)[N+](=O)[O-])c(C)c1    91% (active)
17  CNC(=O)OCc1c(COC(=O)NC)c(C)n(-c2ccc(Br)cc2)c1C    98% (active)
18  O=P(C(=S)Nc1c(Cl)cccc1Cl)(c1ccccc1)c1ccccc1    97% (active)
19  O=C(O)C1CCCCC1c1c2ccc(=O)cc-2oc2cc(O)ccc12 (stereo not drawn)    92% (active)
20  O=C1NC(c2cccc(OCc3ccccc3)c2)Nc2ccccc21 (stereo not drawn)   1% (inactive)
21  CC1C(c2ccccc2)SC(=N)N1C (stereo not drawn)   0% (inactive)
22       O=C1c2ccccc2-c2ccc(N=Cc3ccccc3)cc21  54% (inactive)

---

assay: NCI Yeast Anticancer Drug Screen. Data for the bub3 strain (AID 167)
runParameters: S. cerevisiae bub3 mutant strain, at 33.0 µM, hits give high values
Compounds without any hit were thinned out: in the full panel of roughly 79,000, 15% have a hit.
Quick rule for you: growth inhibition at 30% or higher means class 1, lower means class 0.

                                    compound      cat
 0                  OB(O)c1ccccc1C#Cc1ccccc1  class 1
 1  O=C1C(/C=C/c2ccc(Cl)cc2)=NNC2N1N=C1NC(=O)C3(NN12)c1ccccc1-c1ccccc13 (stereo unspecified)  class 0
 2  CCC(=O)C1=C(O)c2cc(OC)ccc2CC1C(=O)OC (stereo unspecified)  class 0
 3  O=NC1c2cccc3cccc(c23)C1N=O (stereo unspecified)  class 0
 4                    CCCCCCCC/C=C\CCCCCCCCN  class 1
 5  NC(=S)N/N=C1\c2ccccc2CCC1CCC1(O)CCc2ccccc2C1=O (stereo unspecified)  class 1
 6  O=C(O)c1c2ccc(Cl)cc2nc2[nH]c(=O)[nH]c(=O)c12  class 0
 7  O=C1c2ccccc2N2OC3(N4CCCC4)CCCCC3C12c1ccccc1 (stereo unspecified)  class 1
 8  COc1cc2c(cc1OC)[C@@H](Nc1ccc(C#N)cc1)C1COC(=O)[C@@H]1C2c1cc(OC)c(O)c(OC)c1 (stereo partly specified)  class 0
 9  CCCC/C=C1\CCC(CN2CCCC2)C1=O (stereo unspecified)  class 1
10  O=C(NCCNCCNC(=O)c1cc(-c2ccccc2)nc2ccccc12)c1cc(-c2ccccc2)nc2ccccc12  class 0

---

assay: NCI Yeast Anticancer Drug Screen. Data for the mec2-1 strain (AID 157)
runParameters: S. cerevisiae mec2-1 strain, at 1.2 µM, hits give high values
Compounds without any hit were thinned out: in the full panel of roughly 79,000, 15% have a hit.
# growth inhibition annotations
readoutLabel: growth inhibition (%)

                                   compound  valueunit  measuredvalue
0  COc1ccc2cc(C(C)C(=O)N3CCOC3=O)ccc2c1 (stereo not given)          %            -21
1  Cc1ccc(NC(Nc2ccc(C)cc2C)=C(C(Cl)=C(Cl)Cl)[N+](=O)[O-])c(C)c1          %              0
2  Cc1ccc([N+](=O)[O-])c2c(NCCC[N+](C)(C)[O-])c3ccccc3nc12          %            -15
3                 CCN(CC)C(=S)SC(=S)N(CC)CC          %            -34
4  O=C(O)c1cc2c(cc1S(=O)(=O)O)C1C(C3C2C2(Cl)C(Cl)=C(Cl)C3(Cl)C2(Cl)Cl)C2(Cl)C(Cl)=C(Cl)C1(Cl)C2(Cl)Cl (stereo not given)          %             -3
